# Tested on: MS2 coat protein
# run-description: apparent KD of MS2 coat protein; designed switch direction (-1 OFF switch, 1 ON switch): -1; higher = weaker reporter binding
# measurement-context: Eterna round: R95; input ligand: none
Listed here: items and their measured apparent KD of MS2 coat protein.
Please give a number only; it is taken to be in nM.

Reference set, count: 2
sequence-string	reported-measurement
AGUAACCGUCACGAAAGUGAUGGUUACGCAAGUAAAUGUACAUGAGGAUCACCCAUGUCCUCAAUUGCUCGUCUUAU [Sensor 3 - 52] (puzzle: Sensor v3, turn-off variant 2)	623
UUUUUCGAACAAGCUUCGUACAUGAGGAUCACCCAUGUCGGUAGAUUUGAGUAGGUUUGGAUGGAAGUUCGUCUUAU [JR_SV3TOV1_Sub086] (puzzle: Sensor v3, turn-off variant 1)	32.9

The sequence identified as AGUUGGCGAGGAUAUACAUGAGGAUCACCCAUGUGAGAGAAUAAAGUGAGGAAGAAAAGUAGAAGGCGCUGACG [Mat - Exclusion 3 - Mod of Salish D7] (puzzle: Exclusion 3) registered its apparent KD of MS2 coat protein at 53.8

Recorded result, GAUAGAGAGCAGGAUAUCUUGGGUAAGUAUCAUAGAGAAGGGCUCACAUGAGGAUCACCCAUGUGGUCCAAGAU [Dibira] (puzzle: Exclusion 6) , apparent KD of MS2 coat protein: 12.6

Measured apparent KD of MS2 coat protein of AUAAGCUUUUAAAUCCUUAACAUGAGGAUCACCCAUGUUCGUCUUAUGAUGGUCUGAUCCCUGAGGAUCGGACCGUU [JL-sv1-2.03 Brourd Mod] (puzzle: Sensor v3, turn-off variant 1) : 30.9
